The listing below reports pIC50 for compounds tested on Human ATX protein (Homo sapiens).
pIC50: −log10 of the molar value.

Guide cases for pIC50, answers given:
{"compound": "O=C(O)C[C@@H]1CCN(Cc2ccc3c(C(F)(F)F)c(O[C@H]4CC[C@@H](C(F)(F)F)CC4)ccc3c2)C1", "system under test": "Human ATX protein (Homo sapiens)", "pIC50": "≥ 6.30"}
{"compound": "O=C(O)c1ccc(CNC(=O)c2ccc3c(C(F)(F)F)c(O[C@H]4CC[C@@H](C(F)(F)F)CC4)ccc3c2)nc1", "system under test": "Human ATX protein (Homo sapiens)", "pIC50": "≥ 6.30"}
{"compound": "CC1(C)C(NC(c2ccc3c(C(F)(F)F)c(O[C@H]4CC[C@@H](C)CC4)ccc3c2)C2CCCCC2)CC1C(=O)O (stereo partly shown)", "system under test": "Human ATX protein (Homo sapiens)", "pIC50": "≥ 6.30"}
{"compound": "C[C@@H](c1ccc2c(C(F)(F)F)c(O[C@H]3CC[C@@H](C)CC3)ccc2c1)N1CCC[C@H](CC(=O)O)C1", "system under test": "Human ATX protein (Homo sapiens)", "pIC50": "≥ 7.00"}
{"compound": "C[C@H]1CC[C@@H](Oc2ccc3cc(CN4CCOC(CC(=O)O)C4)ccc3c2C(F)(F)F)CC1 (stereo partly shown)", "system under test": "Human ATX protein (Homo sapiens)", "pIC50": "≥ 6.30"}
{"compound": "CC(NC1CC(C(=O)O)C1(C)C)c1ccc2c(C(F)(F)F)c(O[C@H]3CC[C@@H](C(F)(F)F)CC3)ccc2c1 (stereo partly shown)", "system under test": "Human ATX protein (Homo sapiens)", "pIC50": "≥ 7.00"}

--- query ---
Q: Lab note: Human ATX protein (Homo sapiens) assay, enter pIC50 for CCC(c1ccc2c(C(F)(F)F)c(O[C@H]3CC[C@@H](C)CC3)ccc2c1)N1CCC[C@@H](CC(=O)O)C1 (stereo partly shown) here
Ans: ≥ 7.00

----------
List of IC50 tested on Human ATX protein (Homo sapiens, UniProt Q13822).

Example cases with answers are listed next.
{"compound": "C[C@@H](c1ccc2c(C(F)F)c(O[C@H]3CC[C@@H](C)CC3)ccc2c1)N1CCC[C@@H](CC(=O)O)C1 [Example 100]", "IC50": "≤ 0.1 µM"}
{"compound": "C[C@H]1CC[C@@H](Oc2ccc3cc(C(N4CCC(C(=O)O)CC4)C(F)(F)F)ccc3c2C(F)(F)F)CC1 (some centres unmarked) [Example 12]", "IC50": "≤ 0.5 µM"}
{"compound": "C[C@@H](c1ccc2c(C(F)F)c(O[C@H]3CC[C@@H](C)CC3)ccc2c1)N1CCC(C(=O)O)CC1 [Example 61]", "IC50": "≤ 0.25 µM"}
{"compound": "CC(c1ccc2c(C(F)F)c(O[C@H]3CC[C@@H](C)CC3)ccc2c1)N1CCC[C@@H](CC(=O)O)C1 (some centres unmarked) [Example 54]", "IC50": "≤ 0.1 µM"}
{"compound": "CC(NCc1ccc2c(C(F)(F)F)c(O[C@H]3CC[C@@H](C(F)(F)F)CC3)ccc2c1)C1CCC(C(=O)O)CC1 (relative stereo) [Example 41]", "IC50": "≤ 0.5 µM"}
{"compound": "C[C@H]1CC[C@@H](Oc2ccc3cc(CN4CCC[C@H](CC(=O)O)C4)ccc3c2C(F)(F)F)CC1 [Example 49]", "IC50": "≤ 0.1 µM"}

Q: Given CC1(C)C(NCc2ccc3c(C(F)(F)F)c(OC4CCC(C(F)(F)F)CC4)ccc3n2)CC1C(=O)O (centres unmarked) [Example 87] , report its IC50 on Human ATX protein (Homo sapiens, UniProt Q13822).
Ans: ≤ 0.5 µM

Q: Jot down IC50 (Human ATX protein (Homo sapiens, UniProt Q13822)) of CCC(c1ccc2c(C(F)(F)F)c(O[C@H]3CC[C@@H](CC)CC3)ccc2c1)N1CCC[C@H](CC(=O)O)C1 (some centres unmarked) [Example 7] .
Ans: ≤ 0.1 µM

----------
System: Human ATX protein (Homo sapiens, UniProt Q13822) | Read-out: IC50

Record excerpt, results attached:
{"compound": "NC1(C(=O)O)CCN(Cc2ccc3c(C(F)(F)F)c(O[C@H]4CC[C@@H](C(F)(F)F)CC4)ccc3c2)C1 (relative stereo) [Example 78]", "measurement type": "IC50", "test value": "≤ 0.5 µM"}
{"compound": "O=C(O)c1ccc(CNCc2ccc3c(C(F)(F)F)c(O[C@H]4CC[C@@H](C(F)(F)F)CC4)ccc3c2)nc1 [Example 69]", "measurement type": "IC50", "test value": "≤ 0.25 µM"}

Q: Look up Human ATX protein (Homo sapiens, UniProt Q13822) data: IC50 of O=C(O)CC1CN(Cc2ccc3c(C(F)F)c(O[C@H]4CC[C@@H](C(F)(F)F)CC4)ccc3c2)CCO1 (relative stereo) [Example 32] , then report it.
Ans: ≤ 0.5 µM

----------
- system under test: Human ATX protein (Homo sapiens, UniProt Q13822)
- Construct: made in house
- assay protocol: ATX biochemical FRET assay with FS-3 substrate
- conditions: FS-3 substrate 2 μM, ATX 1.0 μg/mL, 30 min preincubation, 2 hours at room temperature
measurement type: IC50

Solved entries (count: 5):
{"molecule": "O=P(O)(O)Cc1ccc(NCc2ccc3c(C(F)(F)F)c(O[C@H]4CC[C@@H](C(F)(F)F)CC4)ccc3c2)cc1", "IC50": "≤ 100 nM"}
{"molecule": "CC[C@@H](c1ccc2c(C(F)(F)F)c(O[C@H]3CC[C@@H](C)CC3)ccc2c1)N1CCC[C@H](CC(=O)O)C1", "IC50": "≤ 100 nM"}
{"molecule": "CC(c1ccc2c(C(F)F)c(O[C@H]3CC[C@@H](C)CC3)ccc2c1)N1CCC[C@H](CC(=O)O)C1 (stereo partly drawn)", "IC50": "≤ 100 nM"}
{"molecule": "C[C@H]1CC[C@@H](Oc2ccc3cc(CN4CCC(CC(=O)O)C4)ccc3c2C(F)(F)F)CC1 (relative stereo)", "IC50": "≤ 500 nM"}
{"molecule": "O=C(O)C1CCC(NCc2ccc3c(C(F)(F)F)c(O[C@H]4CC[C@@H](C(F)(F)F)CC4)ccc3c2)C1 (relative stereo)", "IC50": "≤ 500 nM"}

--- query ---
Q: Name the recorded IC50 of the molecule listed here: O=C(O)C1CCCCN1Cc1ccc2c(C(F)(F)F)c(O[C@H]3CC[C@@H](C(F)(F)F)CC3)ccc2c1 (relative stereo)
Ans: ≤ 500 nM

----------
Entries with reported pIC50 on Human ATX protein (Homo sapiens, UniProt Q13822)
pIC50: −log10 of the molar value.

{"compound": "CCC(c1ccc2c(C(F)(F)F)c(O[C@H]3CC[C@@H](C)CC3)ccc2c1)N1CCC(C(=O)O)CC1 (relative stereo)", "pIC50": "≥ 6.30"}
{"compound": "O=C(O)CC1CN(Cc2ccc3c(C(F)(F)F)c(O[C@H]4CC[C@@H](C(F)(F)F)CC4)ccc3c2)C1", "pIC50": "≥ 6.60"}
{"compound": "CCC(c1ccc2c(C(F)(F)F)c(O[C@H]3CC[C@@H](C)CC3)ccc2c1)N1CCC[C@H](CC(=O)O)C1 (stereo partly shown)", "pIC50": "≥ 7.00"}

Q: Give pIC50 for CCC(c1ccc2c(C(F)(F)F)c(O[C@H]3CC[C@@H](C(F)(F)F)CC3)ccc2c1)N1CCC[C@@H](CC(=O)O)C1 (stereo partly shown)
Ans: ≥ 7.00

----------
- system under test: UniProtKB Q13822
pIC50: −log10 of the molar value.
measurement type: pIC50

{"compound": "O=C(O)[C@H]1CC[C@H](CNCc2ccc3c(C(F)(F)F)c(O[C@H]4CC[C@@H](C(F)(F)F)CC4)ccc3c2)CC1", "pIC50": "≥ 6.60"}
{"compound": "CC1(C)C(NCc2ccc3c(C(F)F)c(O[C@H]4CC[C@@H](C(F)(F)F)CC4)ccc3c2)CC1C(=O)O (relative stereo)", "pIC50": "≥ 6.30"}
{"compound": "O=C(O)CC1CCN(Cc2ccc3c(C(F)(F)F)c(O[C@H]4CC[C@@H](C(F)(F)F)CC4)ccc3c2)CC1", "pIC50": "≥ 6.60"}
{"compound": "O=C(O)C[C@H]1CCCN(Cc2ccc3c(C(F)(F)F)c(O[C@H]4CC[C@@H](C(F)(F)F)CC4)ccc3n2)C1", "pIC50": "≥ 6.60"}
{"compound": "C[C@H]1CC[C@@H](Oc2ccc3cc(CN4CC(CC(=O)O)C4)ccc3c2C(F)(F)F)CC1", "pIC50": "≥ 6.30"}

Q: Write down the reported pIC50 (system: UniProtKB Q13822) of CC1(C)C(NC(c2ccc3c(C(F)(F)F)c(O[C@H]4CC[C@@H](C(F)(F)F)CC4)ccc3c2)C2CCCCC2)CC1C(=O)O (stereo partly shown)
Ans: ≥ 6.30

Q: Provide UniProtKB Q13822 pIC50 reading for O=C(O)C[C@H]1CCCN(Cc2ccc3c(C(F)(F)F)c(OC4CCC(F)(F)CC4)ccc3c2)C1 .
Ans: ≥ 6.30
